target: Sodium channel protein type 9 subunit alpha (Homo sapiens); assay: Ex-Vivo Potencies in Inactivated state: The potencies of the compounds provided herein to block specific Na+ channels was measured using automated patch clamp electrophysiologically of Nav1.7 sodium channels (human SCN9A gene) stably expressed in CHO cells using the IonWorks Barracuda system. Currents were measured from the whole cell patch configuration. From a holding potential of −90 mV, membranes were subjected to a 200 ms pre-pulse to −120 mV, then pulsed to 0 mV to measure blockade of the tonic (resting) state. Inactivated state block was elicited by repolarization to −100 mV (20 ms pulse duration), followed by depolarization to 0 mV (20 ms pulse duration). Peak inward Na+ currents were measured in the presence of vehicle or various concentrations of the test compound to determine the percent block of current.; format: cell-based
Sequence (Q15858 whole entry): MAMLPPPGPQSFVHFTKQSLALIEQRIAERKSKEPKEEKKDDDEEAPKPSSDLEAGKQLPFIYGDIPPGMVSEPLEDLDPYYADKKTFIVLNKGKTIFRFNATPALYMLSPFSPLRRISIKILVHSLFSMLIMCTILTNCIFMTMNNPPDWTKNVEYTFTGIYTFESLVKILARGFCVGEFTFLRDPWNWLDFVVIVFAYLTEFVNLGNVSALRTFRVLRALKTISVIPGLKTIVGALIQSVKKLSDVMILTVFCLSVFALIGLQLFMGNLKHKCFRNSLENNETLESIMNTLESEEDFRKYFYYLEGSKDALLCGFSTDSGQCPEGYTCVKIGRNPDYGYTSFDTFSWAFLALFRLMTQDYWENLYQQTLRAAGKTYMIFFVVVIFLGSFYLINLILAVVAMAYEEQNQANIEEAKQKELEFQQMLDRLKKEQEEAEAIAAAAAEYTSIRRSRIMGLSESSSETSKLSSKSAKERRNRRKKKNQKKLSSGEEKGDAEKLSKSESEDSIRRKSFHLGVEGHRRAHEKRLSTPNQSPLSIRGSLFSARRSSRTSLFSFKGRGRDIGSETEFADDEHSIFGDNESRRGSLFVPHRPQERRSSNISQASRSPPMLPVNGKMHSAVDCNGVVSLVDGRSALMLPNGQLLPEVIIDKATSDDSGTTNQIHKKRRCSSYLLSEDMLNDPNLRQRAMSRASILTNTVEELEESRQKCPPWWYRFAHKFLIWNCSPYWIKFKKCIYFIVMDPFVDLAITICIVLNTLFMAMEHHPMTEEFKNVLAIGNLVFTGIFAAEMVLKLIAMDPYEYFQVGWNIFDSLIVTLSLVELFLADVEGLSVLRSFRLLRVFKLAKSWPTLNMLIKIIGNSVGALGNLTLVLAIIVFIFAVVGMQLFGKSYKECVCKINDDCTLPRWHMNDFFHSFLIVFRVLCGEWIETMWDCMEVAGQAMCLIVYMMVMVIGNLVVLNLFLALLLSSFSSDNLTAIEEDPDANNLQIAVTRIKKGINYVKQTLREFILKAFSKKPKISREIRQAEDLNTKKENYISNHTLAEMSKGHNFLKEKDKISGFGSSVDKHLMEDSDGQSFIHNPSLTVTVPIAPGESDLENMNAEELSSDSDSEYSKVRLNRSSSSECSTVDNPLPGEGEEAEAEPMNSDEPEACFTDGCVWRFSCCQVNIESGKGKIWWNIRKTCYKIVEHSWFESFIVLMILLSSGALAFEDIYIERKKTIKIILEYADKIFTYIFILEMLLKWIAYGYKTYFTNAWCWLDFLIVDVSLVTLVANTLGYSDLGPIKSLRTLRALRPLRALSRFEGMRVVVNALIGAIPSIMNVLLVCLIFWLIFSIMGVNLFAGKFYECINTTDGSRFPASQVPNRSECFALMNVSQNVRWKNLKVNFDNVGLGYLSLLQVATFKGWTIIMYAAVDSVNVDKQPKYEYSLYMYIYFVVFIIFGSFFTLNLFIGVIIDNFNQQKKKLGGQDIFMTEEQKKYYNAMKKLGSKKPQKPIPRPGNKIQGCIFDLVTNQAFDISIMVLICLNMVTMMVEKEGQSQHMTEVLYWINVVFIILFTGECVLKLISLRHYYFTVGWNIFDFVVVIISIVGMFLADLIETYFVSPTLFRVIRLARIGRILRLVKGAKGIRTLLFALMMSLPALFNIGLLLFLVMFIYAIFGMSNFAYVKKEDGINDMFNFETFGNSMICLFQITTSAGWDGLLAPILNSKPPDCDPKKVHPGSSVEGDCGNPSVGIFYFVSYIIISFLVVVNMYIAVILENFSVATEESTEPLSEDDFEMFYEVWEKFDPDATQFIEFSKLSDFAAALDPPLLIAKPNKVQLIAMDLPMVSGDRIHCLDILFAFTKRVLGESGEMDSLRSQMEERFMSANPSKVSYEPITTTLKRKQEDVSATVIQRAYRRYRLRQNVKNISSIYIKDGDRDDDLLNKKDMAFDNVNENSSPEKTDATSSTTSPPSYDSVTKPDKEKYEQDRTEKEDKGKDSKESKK
measuredMetric: IC50

compound	result
Nc1nc(NCCOCCNCC(=O)O)nnc1-c1cccc(Cl)c1Cl	> 300 µM
C[C@@H]1CN(c2nnc(-c3cc(F)cc(Cl)c3Cl)c(N)n2)C[C@H](C)N1	< 50 µM
COCCOCCOCC(C)Nc1nnc(-c2cccc(Cl)c2Cl)c(N)n1 (stereo unspecified)	< 50 µM

Query (compound): `Nc1nc(N2CC(OCC(F)(F)F)C2)nnc1-c1cccc(Cl)c1Cl` ; field requested: IC50
> 300 µM

Query (compound): `Nc1nc(NC2CCNCC2)nnc1-c1cccc(Cl)c1Cl` ; field requested: IC50
> 300 µM

Query (compound): `COCCOCCOCCOc1ccc(-c2nnc(N)nc2N)c(Cl)c1Cl` ; field requested: IC50
> 300 µM
